- test-target: Human SARS-CoV-2_Wuhan S (SmT1) (SARS-CoV-2 (Wuhan), UniProt P0DTC2 14-1208)
- procedure-text: sandwich ELISA: biotin NRCoV2-02 VHH capture, antigen titrated, VHH-Fc detector
Examples of binders with documented Limit of detection follow.
Answer format reminder: number followed by unit.

Reference set, count: 3
binder: NRCoV2-07 VHH-Fc (Fc fusion, bivalent VHH-Fc) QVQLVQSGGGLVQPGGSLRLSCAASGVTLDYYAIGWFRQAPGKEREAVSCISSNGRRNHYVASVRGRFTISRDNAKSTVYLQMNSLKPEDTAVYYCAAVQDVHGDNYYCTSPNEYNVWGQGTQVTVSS
value-measured: 1.4 ng/mL
//
binder: NRCoV2-1d VHH-Fc (Fc fusion, bivalent VHH-Fc) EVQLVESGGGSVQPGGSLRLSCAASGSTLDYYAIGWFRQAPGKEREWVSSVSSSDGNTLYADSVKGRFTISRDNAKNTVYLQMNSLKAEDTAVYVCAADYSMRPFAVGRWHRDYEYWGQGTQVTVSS
value-measured: 1.4 ng/mL
//
binder: NRCoV2-04 VHH-Fc (Fc fusion, bivalent VHH-Fc) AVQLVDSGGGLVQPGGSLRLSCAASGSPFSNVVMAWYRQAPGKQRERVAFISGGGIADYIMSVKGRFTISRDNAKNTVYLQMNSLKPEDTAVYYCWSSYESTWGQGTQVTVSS
value-measured: 4.1 ng/mL

Form field: reported Limit of detection of NRCoV2-11 VHH-Fc (Fc fusion, bivalent VHH-Fc) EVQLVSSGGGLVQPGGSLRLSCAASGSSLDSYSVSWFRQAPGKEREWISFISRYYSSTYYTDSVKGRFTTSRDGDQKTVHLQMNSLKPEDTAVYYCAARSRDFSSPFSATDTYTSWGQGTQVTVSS
1.4 ng/mL
